From: patent US4792632A

measurement-protocol: UV/visible extinction at 400 nm
Type: physicochemical
test-conditions: Table 2
measurement-kind: Extinction at 400 nm

compound	Extinction at 400 nm
Cc1ccc(C)c(P(=O)(C(=O)c2c(Cl)cccc2Cl)c2cc(C)ccc2C)c1 [reference compound]	440
Cc1ccc(C)c(P(=O)(C(=O)c2c(Cl)cccc2Cl)C(=O)c2c(Cl)cccc2Cl)c1	580

1: O=C(c1c(Cl)cccc1Cl)P(=O)(C(=O)c1c(Cl)cccc1Cl)c1ccccc1
2: O=C(c1c(Cl)cccc1Cl)P(=O)(c1ccccc1)c1ccccc1 [reference compound]
Kindly identify the item with the lower Extinction at 400 nm figure among these two: 1 and 2 Answer with the label corresponding to your selection.
2

* * *

measurement-protocol: UV/visible extinction at 400 nm
Format: physicochemical
test-conditions: Table 1
measurement-kind: εmol at 400 nm

Examples from the recorded data:
structure	εmol at 400 nm
COc1cccc(OC)c1C(=O)P(=O)(C(=O)c1c(OC)cccc1OC)c1ccccc1	550
COc1ccc2ccccc2c1C(=O)P(=O)(C(=O)c1c(OC)ccc2ccccc12)c1cc(C)ccc1C	2550
CCCCCCCCCCP(=O)(C(=O)c1c(Cl)cccc1Cl)C(=O)c1c(Cl)cccc1Cl	470

P: O=C(c1c(Cl)cccc1Cl)P(=O)(C(=O)c1c(Cl)cccc1Cl)c1ccc(-c2ccccc2)cc1
Q: CCOc1ccc(P(=O)(C(=O)c2c(OC)ccc3ccccc23)C(=O)c2c(OC)ccc3ccccc23)cc1
Which has the higher εmol at 400 nm, P or Q ? Indicate which entry you chose by stating its label.
Q
(Q: 2700, P: 800)

A: COc1cccc(OC)c1C(=O)P(=O)(C(=O)c1c(OC)cccc1OC)c1cc(C)ccc1C
B: Cc1ccc2ccccc2c1C(=O)P(=O)(C(=O)c1c(C)ccc2ccccc12)c1ccc(-c2ccccc2)cc1
When their εmol at 400 nm values are compared, which is larger, A or B ? Field: selected label. Fill in the label of the entry you choose.
B

* * *

measurement-protocol: UV/visible extinction at 400 nm
Assay type: physicochemical
test-conditions: Table 1
measurement-kind: εmol at 400 nm

For orientation, consider the following solved cases.
structure	εmol at 400 nm
CCOc1ccc(P(=O)(C(=O)c2c(Cl)cccc2Cl)C(=O)c2c(Cl)cccc2Cl)cc1	690
CCCCCCCCc1ccc(P(=O)(C(=O)c2c(Cl)cccc2Cl)C(=O)c2c(Cl)cccc2Cl)cc1	620

1: Cc1ccc2ccccc2c1C(=O)P(=O)(C(=O)c1c(C)ccc2ccccc12)c1ccccc1
2: COc1c(Cl)c(C(=O)P(=O)(C(=O)c2c(Cl)c(OC)c(OC)c(OC)c2Cl)c2cc(C)ccc2C)c(Cl)c(OC)c1OC
// compare measured εmol at 400 nm, left 1 , right 2 , return larger # reply format: chosen label
1
(1: 1040, 2: 640)
